Value source: patent US8389739B1

molecular target: human RORγ (Homo sapiens); construct: expressed in transfected cells; host or cells: CHO cells, transient transfection; assay: Transcriptional assay of human RORγ (Gal4-hRORγ); assay type: cell-based; conditions: Table 4B
Sequence (P51449 253-518): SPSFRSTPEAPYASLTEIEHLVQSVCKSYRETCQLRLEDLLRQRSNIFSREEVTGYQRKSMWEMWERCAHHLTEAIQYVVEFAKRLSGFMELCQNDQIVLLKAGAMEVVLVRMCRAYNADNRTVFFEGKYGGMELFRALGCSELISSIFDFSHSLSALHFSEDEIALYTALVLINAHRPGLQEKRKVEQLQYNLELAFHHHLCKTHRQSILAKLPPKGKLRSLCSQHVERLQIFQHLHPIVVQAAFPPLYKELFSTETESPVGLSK

COMPOUND	EC50 / µM
CCn1c(CNc2cccc(C(F)(F)F)c2)nnc1SCC(=O)Nc1cccc2ccccc12	2.4
CCN(c1ccc(C(O)(C(F)(F)F)C(F)(F)F)cc1)S(=O)(=O)c1ccc([N+](=O)[O-])cc1	0.4
CCn1c(CNc2ccc(Cl)cc2)nnc1SCC(=O)Nc1cccc2ccccc12	6.8
COc1c(C=NNc2nc(N3CCCCC3)nc(N3CCCCC3)n2)cccc1[N+](=O)[O-]	1
CC(=O)O[C@H]1CC[C@@]2(C)C(CC[C@]3(C)C2C(=O)C=C2C4[C@@H](C)[C@H](C)CC[C@]4(C(=O)O)CC[C@]23C)C1(C)C (stereo in doubt)	0.2
Cn1c(CNc2cccc(Cl)c2)nnc1SCC(=O)Nc1cccc2ccccc12	9.4
CCn1c(CNc2ccc(C)c(Cl)c2)nnc1SCC(=O)Nc1cccc2ccccc12	1.7
C[C@@H]1CC[C@@]2(OC1)O[C@H]1C[C@H]3[C@@H]4CC[C@H]5C[C@@H](O)CC[C@]5(C)[C@H]4C[C@@H](O)[C@]3(C)[C@H]1[C@@H]2C [OR-885, 5α,20α, 22α, 25D-SPIROSTAN-3β, 12β-DIOL]	5.1
CCn1c(CNc2cccc(Cl)c2)nnc1SCC(=O)Nc1cccc2ccccc12	5

---

biological target: mRORγ LBD (Mus musculus); construct: made in house; host or cells: Sf9 insect cells, baculovirus; cleared lysate used directly; experiment: Biochemical assay, coregulatory peptide recruitment to GST-RORγ LBD (FRET); conditions: Table 2; agonists; biotinylated peptide K; 50% of estimated maximum FRET signal; read-out: EC50 in micromolar at mRORγ Biochemical
pEC50: −log10 of the molar value.
OBSERVED_PROPERTY: pEC50

                                   molecule  observed_property  censoring_operator  recorded_number
0  COC(C)CCC(C)C1CCC2C3CC(O)C4CC(O)CCC4(C)C3CCC12C (stereo not drawn) [OR-12872]              pEC50                   =             7.28
1  CC(CCC(C)(C)O)C1CCC2C3CC(O)C4CC(O)CCC4(C)C3CCC12C (stereo not drawn) [OR-12865]              pEC50                   =             6.68
2  COC(=O)CCC(C)C1CCC2C3CC(O)C4CC(O)CCC4(C)C3CCC12C (stereo not drawn) [OR-942]              pEC50                   =             6.92
3  CC(O)CCC(C)C1CCC2C3CC(O)C4CC(O)CCC4(C)C3CCC12C (stereo not drawn) [OR-12871]              pEC50                   =             6.60
4  COC(C)(C)CCC(C)C1CCC2C3CC(O)C4CC(O)CCC4(C)C3CCC12C (stereo not drawn) [OR-12866]              pEC50                   =             6.85
5  COCCCC(C)C1CCC2C3CC(O)C4CC(O)CCC4(C)C3CCC12C (stereo not drawn) [OR-12864]              pEC50                   =             6.64
6  CC(CCC(=O)N(C)C)C1CCC2C3CC(O)C4CC(O)CCC4(C)C3CCC12C (stereo not drawn) [OR-12868]              pEC50                   =             6.25
7  CC(CCC(=O)O)C1CCC2C1CCC1C3CCC(O)CC3C(O)CC21 (stereo not drawn) [OR-412]              pEC50                   <             4.00
8  CC(CCCO)C1CCC2C3CC(O)C4CC(O)CCC4(C)C3CCC12C (stereo not drawn) [OR-12863]              pEC50                   =             6.17

---

target: hPPARδ (Homo sapiens, UniProt Q03181); construct: 138-441; expressed in transfected cells; host or cells: CHO cells, transient transfection; experiment: Crossreactive receptor transcriptional assay (Gal4 hybrid); type: cell-based
Sequence (Q03181 138-441): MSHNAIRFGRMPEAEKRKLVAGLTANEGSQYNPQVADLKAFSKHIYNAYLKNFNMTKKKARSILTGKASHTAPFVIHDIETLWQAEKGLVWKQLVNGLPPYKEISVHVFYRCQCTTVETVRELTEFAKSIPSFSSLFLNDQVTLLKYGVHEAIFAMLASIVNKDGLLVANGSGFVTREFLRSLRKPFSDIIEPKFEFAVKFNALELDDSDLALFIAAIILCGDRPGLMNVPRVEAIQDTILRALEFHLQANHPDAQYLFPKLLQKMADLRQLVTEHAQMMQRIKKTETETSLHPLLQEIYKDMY
Known EC50 of a selection of compounds
OBSERVED_PROPERTY: EC50

COMPOUND	OBSERVED_PROPERTY	RESULT
C[C@@H]1CC[C@@]2(OC1)O[C@H]1C[C@H]3[C@@H]4CC[C@H]5C[C@@H](O)CC[C@]5(C)[C@H]4C[C@@H](O)[C@]3(C)[C@H]1[C@@H]2C [OR-885, 5α,20α, 22α, 25D-SPIROSTAN-3β, 12β-DIOL]	EC50	> 10 µM
CC(C)(Oc1ccc(CCNC(=O)c2ccc(Cl)cc2)cc1)C(=O)O [Bezafibrate, bezafibrate, reference compound]	EC50	> 20 µM

---

Target: mRORγ LBD (Mus musculus, UniProt P51450)
Construct: made in house; host or cells: Sf9 insect cells, baculovirus; cleared lysate used directly
Sequence (P51450 251-516): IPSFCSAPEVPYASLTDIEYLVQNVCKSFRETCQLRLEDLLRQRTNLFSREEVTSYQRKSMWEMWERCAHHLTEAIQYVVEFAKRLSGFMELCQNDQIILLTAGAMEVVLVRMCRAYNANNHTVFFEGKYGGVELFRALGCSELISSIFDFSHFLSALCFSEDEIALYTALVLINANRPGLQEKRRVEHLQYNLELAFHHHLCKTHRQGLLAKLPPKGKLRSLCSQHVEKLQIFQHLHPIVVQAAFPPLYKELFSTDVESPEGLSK
Experiment: Biochemical assay, coregulatory peptide recruitment to GST-RORγ LBD (FRET)
Known EC50 of a selection of compounds

COMPOUND	EC50 (nM)
CCN(c1ccc(C(O)(C(F)(F)F)C(F)(F)F)cc1)S(=O)(=O)c1ccccc1 [OR-1031]	3500
C[C@@H]1CC[C@@]2(OC1)O[C@H]1C[C@H]3[C@@H]4CC[C@H]5C[C@@H](O)CC[C@]5(C)[C@H]4C[C@@H](O)[C@]3(C)[C@H]1[C@@H]2C [OR-885, 5α,20α, 22α, 25D-SPIROSTAN-3β, 12β-DIOL]	2500

---

target: mRORγ LBD (Mus musculus, UniProt P51450); construct: made in house; host or cells: Sf9 insect cells, baculovirus; cleared lysate used directly; test: Biochemical assay, coregulatory peptide recruitment to GST-RORγ LBD (FRET); settings: Table 7; taken from Table 1 (peptide K1); read-out: Assay EC50 in micromolar at mRORγ Biochemical
Known EC50 of a selection of compounds
OBSERVED_PROPERTY: EC50 (µM)

In [3]: df
Out[3]:
                                   compound  censoring_operator  recorded_number
0  CCN(c1ccc(C(O)(C(F)(F)F)C(F)(F)F)cc1)S(=O)(=O)c1ccc([N+](=O)[O-])cc1 [OR-1050]                   =              0.9
1  CCN(c1ccc(C(O)(C(F)(F)F)C(F)(F)F)cc1)S(=O)(=O)c1ccc(Br)cc1 [OR-1048]                   =             0.42
2  O=C(O)CN(c1ccc(C(O)(C(F)(F)F)C(F)(F)F)cc1)S(=O)(=O)c1ccccc1 [OR-1046]                   >              100
3  CCN(c1ccc(C(OC)(C(F)(F)F)C(F)(F)F)cc1)S(=O)(=O)c1ccccc1 [OR-1030]                   >              100
4  CCN(c1ccc(C(O)(C(F)(F)F)C(F)(F)F)cc1)S(=O)(=O)c1ccc(C)cc1 [OR-1052]                   =             0.89
5  CCCCc1ccc(S(=O)(=O)N(CC)c2ccc(C(O)(C(F)(F)F)C(F)(F)F)cc2)cc1 [OR-1047]                   =              5.8

---

molecular target: mRORγ (Mus musculus, UniProt P51450); construct: expressed in transfected cells; host or cells: CHO cells, transient transfection; test: Transcriptional assay, Gal4-mRORγ with luciferase reporter in CHO cells; format: cell-based; conditions: Table 4A; medians of two or more assays; unit inferred; read-out: EC50 Transcriptional
Known EC50 of a selection of compounds
OBSERVED_PROPERTY: EC50 (nM)

In [3]: df
Out[3]:
                                   compound   u  recorded_number
0  CCn1c(CNc2ccc(C)c(Cl)c2)nnc1SCC(=O)Nc1cccc2ccccc12  nM              490
1  CCn1c(CNc2ccc(Cl)cc2)nnc1SCC(=O)Nc1cccc2ccccc12  nM             1460
2  CC(=O)O[C@H]1CC[C@@]2(C)C(CC[C@]3(C)C2C(=O)C=C2C4[C@@H](C)[C@H](C)CC[C@]4(C(=O)O)CC[C@]23C)C1(C)C (stereo in doubt)  nM              270
3  COc1c(C=NNc2nc(N3CCCCC3)nc(N3CCCCC3)n2)cccc1[N+](=O)[O-]  nM              330
